The reported numbers originate from patent US6143715A.

- Tested System: HCV NS3 protease type 1b/NS4A cofactor peptide (Hepatitis C virus genotype 1b, UniProt P26663)
- Construct: recombinant HCV NS3 protease (amino acid 1027 to 1206) was cloned; made in house; host or cells: E. coli BL21(DE3)pLysS
- Sequence (P26663 1027-1206, other chains not shown): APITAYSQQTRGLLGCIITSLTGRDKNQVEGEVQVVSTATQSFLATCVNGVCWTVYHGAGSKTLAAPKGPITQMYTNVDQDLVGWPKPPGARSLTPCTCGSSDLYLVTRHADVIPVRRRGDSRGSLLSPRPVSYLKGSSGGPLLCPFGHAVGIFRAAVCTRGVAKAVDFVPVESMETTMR
- Assay Procedure: biochemical
- Parameters: species or system hepatitis C virus (HCV) genotype 1b
Starred links: 1 amine or outer side, 2 acyl side, 3 side chain; linkers in the order of their positions; H or OH if unused. Non-standard residues stand in square brackets, D forms with d. Residues, ends and D or L forms follow the SMILES beside them. ξ: configuration not given here. *: point of attachment. NH(1S-phenylpropyl) = CC[C@H](N*)c1ccccc1; NH(1S-phenylethyl) = C[C@H](N*)c1ccccc1; X20 = O=C(N(CC(F)(F)F)N[*:1])[*:2]; Hyp = O=C(O)[C@@H]1C[C@@H](O)CN1; azaNva = CCCN(N[*:1])C(=O)[*:2]; X18 = CCCN(N*)C(=S)NCc1ccccc1; X6 = CCCC(N*)C(=O)CCc1ccccc1; X16 = CCCCN(N*)C(N)=O; NHBn = c1ccc(CN*)cc1; ξNva = CCCC(N)C(=O)O; Bn = c1ccc(C*)cc1
Quantity Measured: IC50 (nM)
Just the number in nM, nothing appended.

Consider the following illustrative entries.
Molecule | IC50 / nM
CC[C@H](C)[C@H](NC(=O)[C@@H](CCC(=O)O)NC(=O)[C@H](CC(=O)O)NC(C)=O)C(=O)N[C@H](C(=O)N1C[C@H](OCc2ccccc2)C[C@H]1C(=O)NN(CC(F)(F)F)C(=O)N[C@@H](C)c1ccccc1)C(C)C [Compound 228] (Ac-D[dE]IV[Hyp](Bn)[X20]-{NH(1S-phenylethyl)}) | 630
CCCN(NC(=O)[C@@H]1C[C@@H](OCc2ccccc2)CN1C(=O)[C@@H](NC(=O)[C@@H](NC(C)=O)C1CCCCC1)C(C)C)C(=O)C(=O)O | 39500
CCCC(C=O)NC(=O)[C@@H]1C[C@@H](OCc2ccccc2)CN1C(=O)[C@@H](NC(=O)[C@@H](NC(=O)[C@@H](CCC(=O)O)NC(=O)[C@H](CC(=O)O)NC(C)=O)[C@@H](C)CC)C(C)C (some centres unmarked) [Compound 104] (Ac-D[dE]IV[Hyp](Bn)[ξNva]-aldehyde) | 140
CCCN(NC(=O)[C@@H]1C[C@@H](OCc2ccccc2)CN1C(=O)[C@@H](NC(=O)[C@@H](NC(=O)[C@@H](CCC(=O)O)NC(=O)[C@H](CC(=O)O)NC(C)=O)[C@@H](C)CC)C(C)C)C(=O)N[C@@H](CC)c1ccccc1 [Compound 214] (Ac-D[dE]IV[Hyp](Bn)[azaNva]-{NH(1S-phenylpropyl)}) | 440
CCCN(NC(=O)[C@@H]1C[C@@H](OCc2ccccc2)CN1C(=O)[C@@H](NC(=O)[C@@H](NC(=O)[C@@H](CCC(=O)O)NC(=O)[C@H](CC(=O)O)NC(C)=O)[C@@H](C)CC)C(C)C)C(=O)NCc1ccccc1 [Compound 203] (Ac-D[dE]IV[Hyp](Bn)[azaNva]-NHBn) | 590

Please fill in: IC50 reported for CCCN(NC(=O)[C@@H]1C[C@@H](OCc2ccccc2)CN1C(=O)[C@@H](NC(=O)[C@@H](NC(=O)[C@@H](CCC(=O)O)NC(=O)[C@H](CC(=O)O)NC(C)=O)[C@@H](C)CC)C(C)C)C(=S)NCc1ccccc1 [Compound 224] (Ac-D[dE]IV[Hyp](Bn)-X18) = 5000

Please fill in: IC50 reported for CCCCN(NC(=O)[C@@H]1C[C@@H](OCc2ccccc2)CN1C(=O)[C@@H](NC(=O)[C@@H](NC(=O)[C@@H](CCC(=O)O)NC(=O)[C@H](CC(=O)O)NC(C)=O)[C@@H](C)CC)C(C)C)C(N)=O [Compound 211] (Ac-D[dE]IV[Hyp](Bn)-X16) = 47000

Please fill in: IC50 reported for CCCC(NC(=O)[C@@H]1C[C@@H](OCc2ccccc2)CN1C(=O)[C@@H](NC(=O)[C@@H](NC(=O)[C@@H](CCC(=O)O)NC(=O)[C@H](CC(=O)O)NC(C)=O)[C@@H](C)CC)C(C)C)C(=O)CCc1ccccc1 (some centres unmarked) [Compound 106] (Ac-D[dE]IV[Hyp](Bn)-X6) = 5400

Please fill in: IC50 reported for CCCN(NC(=O)[C@@H]1C[C@@H](OCc2ccccc2)CN1C(=O)[C@@H](NC(=O)[C@@H](NC(=O)[C@@H](CCC(=O)O)NC(=O)[C@H](CC(=O)O)NC(C)=O)[C@@H](C)CC)C(C)C)C(=O)NCC(=O)O [Compound 207] (Ac-D[dE]IV[Hyp](Bn)[azaNva]G-OH) = 3750

* * *

- Tested System: HCV NS3 protease type 1b/NS4A cofactor peptide (Hepatitis C virus genotype 1b)
- Construct: recombinant HCV NS3 protease (amino acid 1027 to 1206) was cloned; made in house; host or cells: E. coli BL21(DE3)pLysS
- Assay Procedure: biochemical
- Parameters: species or system hepatitis C virus (HCV) genotype 1b
- Source text: a) Cloning, expression and purification of the recombinant HCV NS3 protease type lb Serum from an HCV-infected patient was obtained through an external collaboration (Bernard Willems MD, Hopital St-Luc, Montreal, Canada and Dr. Donald Murphy, Laboratoire de Sante Publique du Quebec, Ste-Anne de Bellevue, Canada). […]
Starred links: 1 amine or outer side, 2 acyl side, 3 side chain; linkers in the order of their positions; H or OH if unused. Non-standard residues stand in square brackets, D forms with d. Residues, ends and D or L forms follow the SMILES beside them. ξ: configuration not given here. *: point of attachment. NH(1S-phenylethyl) = C[C@H](N*)c1ccccc1; X15 = CCCC(N[*:1])C(=O)C(=O)[*:2]; Hyp = O=C(O)[C@@H]1C[C@@H](O)CN1; azaNva = CCCN(N[*:1])C(=O)[*:2]; X10 = C=CCN(N[*:1])C(=O)[*:2]; NMe(benzyl) = CN(Cc1ccccc1)*; Suc = O=C(CCC(=O)[*:2])[*:1]; NHBn = c1ccc(CN*)cc1; X13 = CCCN(N*)C(N)=O; ξAbu = CCC(N)C(=O)O; Bn = c1ccc(C*)cc1; CF3 = FC(F)(F)*
Listed below: pIC50 values for each entry.
Please treat pIC50 as minus the base-10 logarithm of the molar concentration.

Consider the following illustrative entries.
Molecule | pIC50
CCCC(NC(=O)[C@@H]1C[C@@H](OCc2ccccc2)CN1C(=O)[C@@H](NC(=O)[C@@H](NC(=O)[C@@H](CCC(=O)O)NC(=O)[C@H](CC(=O)O)NC(C)=O)[C@@H](C)CC)C(C)C)C(=O)C(=O)NCc1ccccc1 (some centres unmarked) [Compound 103] (Ac-D[dE]IV[Hyp](Bn)[X15]-NHBn) | 7.64
CCCN(NC(=O)[C@@H]1C[C@@H](OCc2ccccc2)CN1C(=O)[C@@H](NC(=O)[C@@H](NC(=O)[C@@H](CCC(=O)O)NC(=O)[C@H](CC(=O)O)NC(C)=O)[C@@H](C)CC)C(C)C)C(=O)NCC(=O)OCC [Compound 201] (Ac-D[dE]IV[Hyp](Bn)[azaNva]G-OEt) | 5.41
CCCN(NC(=O)[C@@H]1CCCN1C(=O)[C@@H](NC(=O)[C@@H](NC(=O)[C@@H](CC(=O)O)NC(=O)CCC(=O)O)[C@@H](C)CC)C(C)C)C(=O)N[C@@H](C)c1ccccc1 [Compound 220] (Suc-[dD]IVP[azaNva]-{NH(1S-phenylethyl)}) | 5.16

Measured on HCV NS3 protease type 1b/NS4A cofactor peptide (Hepatitis C virus genotype 1b), CCC(NC(=O)[C@@H]1C[C@@H](OCc2ccccc2)CN1C(=O)[C@@H](NC(=O)[C@@H](NC(=O)[C@@H](CCC(=O)O)NC(=O)[C@H](CC(=O)O)NC(C)=O)[C@@H](C)CC)C(C)C)C(=O)C(F)(F)F (some centres unmarked) [Compound 101] (Ac-D[dE]IV[Hyp](Bn)[ξAbu]-CF3) has a documented pIC50 of 5.03

Measured on HCV NS3 protease type 1b/NS4A cofactor peptide (Hepatitis C virus genotype 1b), CCCN(NC(=O)[C@@H]1C[C@@H](OCc2ccccc2)CN1C(=O)[C@@H](NC(=O)[C@@H](NC(C)=O)C1CCCCC1)C(C)C)C(=O)N[C@@H](C)c1ccccc1 has a documented pIC50 of 4.35

Measured on HCV NS3 protease type 1b/NS4A cofactor peptide (Hepatitis C virus genotype 1b), CCCN(NC(=O)[C@@H]1C[C@@H](OCc2ccccc2)CN1C(=O)[C@@H](NC(=O)[C@@H](NC(=O)[C@@H](CCC(=O)O)NC(=O)[C@H](CC(=O)O)NC(C)=O)[C@@H](C)CC)C(C)C)C(=O)N(C)Cc1ccccc1 [Compound 223] (Ac-D[dE]IV[Hyp](Bn)[azaNva]-{NMe(benzyl)}) has a documented pIC50 of 4.96

Measured on HCV NS3 protease type 1b/NS4A cofactor peptide (Hepatitis C virus genotype 1b), CCCN(NC(=O)[C@@H]1C[C@@H](OCc2ccccc2)CN1C(=O)[C@@H](NC(=O)[C@@H](NC(=O)[C@@H](CCC(=O)O)NC(=O)[C@H](CC(=O)O)NC(C)=O)[C@@H](C)CC)C(C)C)C(N)=O [Compound 209] (Ac-D[dE]IV[Hyp](Bn)-X13) has a documented pIC50 of 4.69

Measured on HCV NS3 protease type 1b/NS4A cofactor peptide (Hepatitis C virus genotype 1b), C=CCN(NC(=O)[C@@H]1C[C@@H](OCc2ccccc2)CN1C(=O)[C@@H](NC(=O)[C@@H](NC(=O)[C@@H](CCC(=O)O)NC(=O)[C@H](CC(=O)O)NC(C)=O)[C@@H](C)CC)C(C)C)C(=O)NCc1ccccc1 [Compound 234] (Ac-D[dE]IV[Hyp](Bn)[X10]-NHBn) has a documented pIC50 of 5.43
